# experimental.system: α2AAR (α2A-adrenergic receptor) (Homo sapiens, UniProt P08913)
# Construct: expressed in transfected cells; host or cells: HEK293
# Sequence (P08913 whole entry, species assumed): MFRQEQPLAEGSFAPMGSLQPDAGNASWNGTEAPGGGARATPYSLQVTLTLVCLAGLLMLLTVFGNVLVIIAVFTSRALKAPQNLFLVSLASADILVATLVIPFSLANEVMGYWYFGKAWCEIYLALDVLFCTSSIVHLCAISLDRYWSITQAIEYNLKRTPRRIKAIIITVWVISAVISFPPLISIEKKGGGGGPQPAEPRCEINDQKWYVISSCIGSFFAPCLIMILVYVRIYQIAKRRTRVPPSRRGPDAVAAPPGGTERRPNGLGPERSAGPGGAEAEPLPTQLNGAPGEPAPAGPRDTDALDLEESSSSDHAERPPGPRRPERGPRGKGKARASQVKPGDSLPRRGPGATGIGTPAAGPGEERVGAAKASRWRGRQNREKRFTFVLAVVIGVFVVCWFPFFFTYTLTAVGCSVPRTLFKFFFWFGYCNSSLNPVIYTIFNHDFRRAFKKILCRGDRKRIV
# measurement.description: α2AAR FLIPR assay (agonist activity)
# Type: cell-based
# condition.label: FLIPR, α2AAR cell line hosted in HEK293 cells; read-out: α2A agonist activity (EC50)
pEC50: −log10 of the molar value.
quantity.name: pEC50

[
  {
    "molecule": "COCCOCCOCC(c1c[nH]cn1)c1cccc(C)c1C (centres unmarked)",
    "pEC50": "6.60 to 7.30"
  },
  {
    "molecule": "Cc1cccc(C(c2cccc(S(=O)(=O)NC3CCOCC3)c2)c2c[nH]cn2)c1C (centres unmarked)",
    "pEC50": "7.30 to 8.00"
  },
  {
    "molecule": "CONC(=O)c1cccc(CC(c2c[nH]cn2)c2cccc(C)c2C)c1 (centres unmarked)",
    "pEC50": "7.30 to 8.00"
  },
  {
    "molecule": "Cc1cccc(C(COCCOCCOCCNS(C)(=O)=O)c2c[nH]cn2)c1C (centres unmarked)",
    "pEC50": "7.30 to 8.00"
  },
  {
    "molecule": "Cc1cccc(C(c2cccc(NS(=O)(=O)CCC#N)c2)c2c[nH]cn2)c1C (centres unmarked)",
    "pEC50": "6.60 to 7.30"
  },
  {
    "molecule": "Cc1cccc(C(Cc2ccc(NS(=O)(=O)C3CCOCC3)cc2)c2c[nH]cn2)c1C (centres unmarked)",
    "pEC50": "7.30 to 8.00"
  },
  {
    "molecule": "CONC(=O)c1cccc(C(c2c[nH]cn2)c2cccc(Cl)c2C)c1 (centres unmarked)",
    "pEC50": "6.60 to 7.30"
  },
  {
    "molecule": "Cc1cccc(C(c2cccc(C(N)=O)c2)c2c[nH]cn2)c1C (centres unmarked) [compound 5]",
    "pEC50": "7.30 to 8.00"
  }
]

Query: Recorded pEC50 of Cc1cccc(C(Cc2ccc3c(c2)NCCN3)c2c[nH]cn2)c1C (centres unmarked) , please.
Response: 7.30 to 8.00

Query: Recorded pEC50 of CONC(=O)c1cccc(C(c2c[nH]cn2)c2cccc(C)c2C)c1 (centres unmarked) [compound 1] , please.
Response: 6.60 to 7.30

Query: Recorded pEC50 of CC(=O)N(C)c1ccc(CC(c2c[nH]cn2)c2cccc(C)c2C)cc1 (centres unmarked) , please.
Response: 7.30 to 8.00
